# protocol text: method code SF, from DOI: 10.1515/bc.2002.085, PMID: 12108546
observed property: logP

Enquiry: What does the record list as logP for CCCOC(=O)C1(C)CCC=[N+]1[O-] (stereo unspecified) ?
Return: -0.3

---

# protocol text: method code SF-AS, from DOI: 10.1016/0005-2728(86)90252-5, PMID: 3015209
# measurement context: pH 7.2
observed property: logD
The reply should be a number, written without any unit.

Cc1ccc(C)c(NN=C(C#N)C#N)c1 | 2.6
N#CC(C#N)=NNc1c(Cl)cccc1Cl | 2.01

Then there is this compound:
Enquiry: Data request, read-out logD, for `Cc1cc([N+](=O)[O-])ccc1NN=C(C#N)C#N`
Return: 1.85
